Origin of values: PubChem BioAssay

- Experimental Details: modulators of MEP2-GFP levels in yeast, primary screen, S. cerevisiae, multiplex flow cytometry (AID 1867);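 note: median GFP channel fluorescence of barcode-gated MEP2-GFP cells measured by flow cytometry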
- Particulars: S. cerevisiae MEP2-GFP strain, 3 h, at 10 µM, active compounds read high, 100% means same as DMSO wells
Results filed as inconclusive are left out.
Catalogue of GFP response vs DMSO values
Measured Parameter: GFP response vs DMSO (%)

Molecule	Measured Parameter	Unit Label	Recorded Result
O=C1NC2(Nc3ccccc31)C(=O)Nc1ccc(Br)cc12 (centres undefined)	GFP response vs DMSO	%	127
COc1cccc(OCc2cc(C3Nc4ccccc4C(=O)N3Cc3ccco3)ccc2OC)c1 (centres undefined)	GFP response vs DMSO	%	99.9
NS(=O)(=O)c1cc2c(cc1Cl)NC(CSCc1ccccc1)=NS2(=O)=O	GFP response vs DMSO	%	119
Cn1c2c(c(=O)[nH]c1=O)C(c1ccc(O)cc1)C1=C(N2)c2ccccc2C1=O (centres undefined)	GFP response vs DMSO	%	97.9
COc1ccc2nc(Nc3nc(CSc4ccc(C)cc4)cc(=O)[nH]3)nc(C)c2c1	GFP response vs DMSO	%	103
Clc1ccc(Cn2c(CN3CCCC3)nc3ccccc32)cc1	GFP response vs DMSO	%	104
NCCCC(=O)O	GFP response vs DMSO	%	99.9
OCCN1CCN(CCCN2c3ccccc3Sc3ccc(Cl)cc32)CC1	GFP response vs DMSO	%	104
COc1cc2c(cc1OC)-c1cc(OCc3ccccc3Cl)nc(=O)n1CC2	GFP response vs DMSO	%	98.9
Cc1ccc2[nH]c3c(c2c1)CN(C(=O)CN1CCSCC1)CC3	GFP response vs DMSO	%	93
C[C@]12CCC(=O)C=C1CC[C@@H]1[C@@H]2C(=O)C[C@@]2(C)[C@H]1CC[C@]2(O)C(=O)CO	GFP response vs DMSO	%	125
COc1cccc2c1C(=O)O/C2=C/c1ccc2c(c1)OCO2	GFP response vs DMSO	%	103
CNCCC=C1c2ccccc2CCc2ccccc21	GFP response vs DMSO	%	98.9
CN1CCC(=C2c3ccccc3C=Cc3ccccc32)CC1	GFP response vs DMSO	%	99.9
Cc1c(OC(=O)CNC(=O)OC(C)(C)C)ccc2c3c(c(=O)oc12)CCC3	GFP response vs DMSO	%	123
CCc1cc2c(=O)c(-c3ccc(F)cc3)c(C)oc2cc1OCC(=O)O	GFP response vs DMSO	%	98.3
CN(C)CCCN1c2ccccc2CCc2ccc(Cl)cc21	GFP response vs DMSO	%	99.7
NC12CC3CC(CC(C3)C1)C2	GFP response vs DMSO	%	119
CCN(CC)CCNc1ccc(CO)c2sc3ccccc3c(=O)c12	GFP response vs DMSO	%	109
O=c1c2ccccc2nnn1Cc1cccc2ccccc12	GFP response vs DMSO	%	105
N#Cc1c2c(c(-c3ccccc3)[nH]c1=O)CCCC2	GFP response vs DMSO	%	98.9
CC(C)NC(=O)C1(c2ccccc2)CCOCC1	GFP response vs DMSO	%	95.9
CCc1c(C)c2ccc(OCC(=O)OC(C)C)c(C)c2oc1=O	GFP response vs DMSO	%	96.9
COc1cc(OC)cc(C(=O)N[C@@H](CCSC)c2nc3ccccc3[nH]2)c1	GFP response vs DMSO	%	88.7

----------
- Experimental Details: modulators of MEP2-GFP levels in yeast, primary screen, S. cerevisiae, multiplex flow cytometry (AID 1867);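 note: median GFP channel fluorescence of barcode-gated MEP2-GFP cells measured by flow cytometry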
- Particulars: S. cerevisiae MEP2-GFP strain, 3 h, at 10 µM, active compounds read high, 100% means same as DMSO wells
Records with an inconclusive call do not appear.

Compound	GFP response vs DMSO [%]
O=C(CCCN1CCC(O)(c2ccc(Cl)cc2)CC1)c1ccc(F)cc1	99.3
CCOC(=O)C1=C(N)Oc2c(oc(CO)cc2=O)C1c1ccc(F)c(F)c1 (stereo not given)	101
COc1ccc(OC)c(-n2c(Cn3c(-c4ccccn4)nc4ccccc43)n[nH]c2=S)c1	101
CCOC(=O)c1ccc(N2C(=O)C(CC(N)=O)N(CCc3ccc(OC)c(OC)c3)C2=S)cc1 (stereo not given)	105
COc1cc2nc(N3CCN(C(=O)C4COc5ccccc5O4)CC3)nc(N)c2cc1OC (stereo not given)	108
O=[N+]([O-])c1cc(/C=N/n2cnnc2)ccc1N1CCCC1	99.9
Cc1ccc(CSCC(=O)NCCCN2CCOCC2)cc1	96.2
CC#C[C@]1(O)CC[C@H]2[C@@H]3CCC4=CC(=O)CCC4=C3[C@@H](c3ccc(N(C)C)cc3)C[C@@]21C	103
O=c1c(-c2ccc3c(c2)OCCO3)coc2cc(OC3OC(CO)C(O)C(O)C3O)ccc12 (stereo not given)	101
O=C1N=c2ccccc2=C1c1[nH]c(=S)[nH]c1O	96.9
